Just for reference, patent US20250051464A1 is where these values come from.

Kindly state IHC score for each of the entries shown.
Molecular target: T1, Human EphA2 (ephrin receptor A2) (human, UniProt P29317 24-976)
T1 construct: Endogenous protein in frozen human tumor tissue and tumor adjacent tissue, not a recombinant construct
T1 sequence (P29317 24-976 limits assumed): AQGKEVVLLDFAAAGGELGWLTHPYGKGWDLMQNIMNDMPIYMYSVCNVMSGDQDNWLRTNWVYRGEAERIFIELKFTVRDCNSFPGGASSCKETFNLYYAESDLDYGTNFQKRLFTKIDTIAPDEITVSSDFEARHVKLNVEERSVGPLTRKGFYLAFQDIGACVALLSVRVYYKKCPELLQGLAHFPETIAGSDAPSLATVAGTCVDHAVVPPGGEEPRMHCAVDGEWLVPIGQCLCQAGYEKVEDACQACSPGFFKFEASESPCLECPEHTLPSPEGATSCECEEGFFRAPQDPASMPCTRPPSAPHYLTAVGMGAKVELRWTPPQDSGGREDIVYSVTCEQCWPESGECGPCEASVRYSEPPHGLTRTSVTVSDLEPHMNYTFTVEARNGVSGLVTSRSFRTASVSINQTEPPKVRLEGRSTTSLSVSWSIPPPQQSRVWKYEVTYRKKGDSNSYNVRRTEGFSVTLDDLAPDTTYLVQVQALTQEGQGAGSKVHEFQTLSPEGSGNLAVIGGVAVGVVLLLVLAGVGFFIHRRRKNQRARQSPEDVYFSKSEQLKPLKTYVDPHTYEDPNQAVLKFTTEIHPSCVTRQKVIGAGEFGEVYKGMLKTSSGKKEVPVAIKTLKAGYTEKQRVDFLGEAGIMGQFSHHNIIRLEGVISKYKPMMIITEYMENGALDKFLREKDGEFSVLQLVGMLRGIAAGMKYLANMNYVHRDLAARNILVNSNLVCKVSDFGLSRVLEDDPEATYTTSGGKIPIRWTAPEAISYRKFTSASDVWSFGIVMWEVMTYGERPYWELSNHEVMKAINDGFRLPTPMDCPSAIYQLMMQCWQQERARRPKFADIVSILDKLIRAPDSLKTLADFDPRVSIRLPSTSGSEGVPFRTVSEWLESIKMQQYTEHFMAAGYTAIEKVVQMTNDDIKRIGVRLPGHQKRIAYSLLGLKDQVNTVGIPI
Test: IHC/IF score on frozen human tumor tissue, RCC-papillary
Response field accepts a number only; no unit should be typed.

Exercise: For AB-009812 (antibody, mouse IgG2a, V domains shown) VH: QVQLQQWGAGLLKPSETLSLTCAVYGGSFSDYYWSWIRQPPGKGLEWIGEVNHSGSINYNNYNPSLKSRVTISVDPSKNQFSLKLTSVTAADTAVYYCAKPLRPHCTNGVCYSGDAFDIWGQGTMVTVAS VL: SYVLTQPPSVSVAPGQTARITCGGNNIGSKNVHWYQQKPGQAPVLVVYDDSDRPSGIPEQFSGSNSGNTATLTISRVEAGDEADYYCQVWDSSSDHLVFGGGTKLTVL , what is its reported IHC score?
Key: 1

Exercise: Next record, please: AB-009815 (antibody, mouse IgG2a, V domains shown) VH: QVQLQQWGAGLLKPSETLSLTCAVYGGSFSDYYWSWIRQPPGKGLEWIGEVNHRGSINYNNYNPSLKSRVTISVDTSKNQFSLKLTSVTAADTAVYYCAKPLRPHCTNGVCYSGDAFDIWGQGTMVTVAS VL: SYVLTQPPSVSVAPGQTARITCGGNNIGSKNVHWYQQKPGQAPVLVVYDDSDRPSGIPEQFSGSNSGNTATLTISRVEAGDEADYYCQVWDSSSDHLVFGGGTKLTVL
Key: 1

Exercise: Also AB-009813 (antibody, mouse IgG2a, V domains shown) VH: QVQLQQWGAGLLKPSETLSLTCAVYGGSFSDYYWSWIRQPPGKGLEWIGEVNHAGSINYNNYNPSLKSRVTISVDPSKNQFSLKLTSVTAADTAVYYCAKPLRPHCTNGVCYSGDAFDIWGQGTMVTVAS VL: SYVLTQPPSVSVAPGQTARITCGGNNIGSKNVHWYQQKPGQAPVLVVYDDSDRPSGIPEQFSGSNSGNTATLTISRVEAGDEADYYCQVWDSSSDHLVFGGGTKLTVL ?
Key: 1

Exercise: What would you report for AB-009816 (antibody, mouse IgG2a, V domains shown) VH: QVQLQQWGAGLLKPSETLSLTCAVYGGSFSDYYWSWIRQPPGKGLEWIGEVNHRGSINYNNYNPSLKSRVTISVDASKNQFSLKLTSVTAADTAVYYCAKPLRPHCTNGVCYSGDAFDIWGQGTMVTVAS VL: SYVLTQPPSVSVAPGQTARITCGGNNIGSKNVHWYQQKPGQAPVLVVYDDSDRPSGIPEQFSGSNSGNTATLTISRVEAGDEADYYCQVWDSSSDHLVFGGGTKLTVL ?
Key: 1
